B1: library; numbered along this chain (parent)
chain: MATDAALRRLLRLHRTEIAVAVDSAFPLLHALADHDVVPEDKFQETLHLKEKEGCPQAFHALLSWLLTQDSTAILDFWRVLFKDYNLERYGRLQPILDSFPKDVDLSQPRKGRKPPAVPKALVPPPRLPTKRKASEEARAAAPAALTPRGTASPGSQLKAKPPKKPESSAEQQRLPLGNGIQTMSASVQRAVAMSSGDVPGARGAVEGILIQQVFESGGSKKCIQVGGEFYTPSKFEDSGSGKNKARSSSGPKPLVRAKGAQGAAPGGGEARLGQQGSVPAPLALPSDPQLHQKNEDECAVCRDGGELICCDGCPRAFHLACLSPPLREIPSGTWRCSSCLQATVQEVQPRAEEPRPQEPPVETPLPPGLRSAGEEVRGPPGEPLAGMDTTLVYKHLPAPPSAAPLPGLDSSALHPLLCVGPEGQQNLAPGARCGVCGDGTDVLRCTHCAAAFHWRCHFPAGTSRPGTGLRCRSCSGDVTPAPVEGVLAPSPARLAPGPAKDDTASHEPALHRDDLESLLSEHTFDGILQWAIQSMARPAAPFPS

Variants of: B1
measurement description: AIRE transcriptional activation functional score (insulin promoter-GFP; nonsense median 0, synonymous median 1) (normalised score); higher = higher AIRE activity (more reporter activation)
test context: with insulin promoter-GFP reporter in HEK293
recorded metric: AIRE transcriptional activation functional score

# mutation descriptor, assay value
measured = [
    ("P544G", 1.38),
    ("P163M", 0.889),
    ("V348S", 0.865),
    ("K235M", 1.33),
    ("K111V", 1.37),
    ("A403N", 1.09),
]
